Please provide measured cytotoxicity at 70.5 h for the entries that follow.
Assay: Human HepG2 cell viability assay in 384 well format
Type: toxicity, cell-based
Design: dose 125 nL, time 70.5 hour; concentration not given beside the values
Settings: HepG2 cells, read-out: Inhibition
Report the figure in % without appending any unit label.

## Input # query: cytotoxicity at 70.5 h of entry Cc1cc(C(=O)N2CCc3nnc(N(C)C)cc3C2)c(C)n1C1CC1
## Output -3.63

## Input # query: cytotoxicity at 70.5 h of entry O=C(C1CCOC1)N1CCC2(CC1)COC2 (configuration not stated)
## Output -7.79

## Input # query: cytotoxicity at 70.5 h of entry Cc1cc(C(=O)NCc2ccccc2CN(C)Cc2ccco2)on1
## Output 9.59

## Input # query: cytotoxicity at 70.5 h of entry Cc1cc(C(=O)N2C[C@@H](C(=O)O)[C@H](C(C)C)C2)cs1
## Output -2.46

## Input # query: cytotoxicity at 70.5 h of entry Cc1ccc(S(C)(=O)=O)cc1C(=O)NS(=O)(=O)c1cccs1
## Output -5.12

## Input # query: cytotoxicity at 70.5 h of entry CN1CCCC2(CCN(c3cccc(C#N)n3)C2)C1=O (configuration not stated)
## Output -8.81

## Input # query: cytotoxicity at 70.5 h of entry Cc1c(NCc2ccccc2C#N)cccc1-n1cnnn1
## Output -3.47

## Input # query: cytotoxicity at 70.5 h of entry CCC(CC)C(=O)NS(=O)(=O)CCc1ccccc1
## Output -23.7

## Input # query: cytotoxicity at 70.5 h of entry COc1ccc(OCCC(=O)N2CCCC2Cn2cccn2)cc1 (configuration not stated)
## Output 0.4

## Input # query: cytotoxicity at 70.5 h of entry COc1cc(N2CCCC(c3nccn3Cc3cccnc3)C2)ncn1 (configuration not stated)
## Output -14.5

## Input # query: cytotoxicity at 70.5 h of entry Cc1oc(C(=O)O)cc1S(=O)(=O)Nc1ccccc1F
## Output -11.3

## Input # query: cytotoxicity at 70.5 h of entry Cc1nc2sc(C(=O)N3CCNC(=O)C3)c(C)c2c(=O)[nH]1
## Output -4.68

## Input # query: cytotoxicity at 70.5 h of entry CCN(CC)S(=O)(=O)N1C[C@@H]2CC[C@H](C1)N(Cc1cscn1)C2=O
## Output -9.09

## Input # query: cytotoxicity at 70.5 h of entry O=C(c1cccnc1)N1CCOC(Cc2ccccc2Cl)C1 (configuration not stated)
## Output 0.0235

## Input # query: cytotoxicity at 70.5 h of entry COc1cccc(C(=O)NS(=O)(=O)c2cccc(C#N)c2)c1OC
## Output -13.8

## Input # query: cytotoxicity at 70.5 h of entry CCN1CCN(C(=O)COc2ccc(CN(C)S(C)(=O)=O)cc2)CC1
## Output -3.87

## Input # query: cytotoxicity at 70.5 h of entry O=C(NCC(=O)N1CCN(c2ccccc2)CC1)c1sccc1C1CC1
## Output -2.46

## Input # query: cytotoxicity at 70.5 h of entry Cc1ccc(C)c(CS(=O)(=O)Cc2ccn(C)c(=O)c2)c1
## Output -7.9

## Input # query: cytotoxicity at 70.5 h of entry CCOCC(=O)NCCn1ccc(-c2ccccn2)n1
## Output -4.11

## Input # query: cytotoxicity at 70.5 h of entry CN(C)C(=O)N1CCC2(CCCN(CCOc3ccccc3)C2)C1 (configuration not stated)
## Output -14.6

## Input # query: cytotoxicity at 70.5 h of entry Cc1ccc(OCc2occc2C(=O)N2C[C@@H]3[C@@H](CN(C)C)[C@@H]3C2)cc1
## Output -9.55

## Input # query: cytotoxicity at 70.5 h of entry CC1(Cc2ccccn2)NCCc2[nH]cnc21 (configuration not stated)
## Output -1.72

====

Please provide measured cytotoxicity at 70.5 h for the entries that follow.
Experiment: Human HepG2 cell viability assay in 384 well format
Type: toxicity, cell-based
Parameters: dose 125 nL, time 70.5 hour; concentration not given beside the values
Conditions: HepG2 cells, read-out: Inhibition
Write the numeric value and append its unit.

## Input # query: cytotoxicity at 70.5 h of entry COC(=O)N1CCCC(NC(=O)NCc2csc(C)n2)C1 (stereo unspecified)
## Output -10.6%

## Input # query: cytotoxicity at 70.5 h of entry O=S(=O)(Cc1c(F)cccc1Cl)NCCCN1CCCCCC1
## Output -1.18%

## Input # query: cytotoxicity at 70.5 h of entry CN(Cc1ccncc1)C1CC2(CCN(c3ncccn3)CC2)C1
## Output -3.37%

## Input # query: cytotoxicity at 70.5 h of entry Fc1cnc(N2CCCC3(CN(Cc4cccs4)CCO3)C2)nc1 (stereo unspecified)
## Output 2.35%

## Input # query: cytotoxicity at 70.5 h of entry CCN1CCN(CCNc2nc3ccc(C)cc3c(=O)n2C)CC1
## Output 11.8%

## Input # query: cytotoxicity at 70.5 h of entry CN(C)c1ncccc1CNC(=O)NCc1ccco1
## Output 0.432%

====

Please provide measured cytotoxicity at 70.5 h for the entries that follow.
Test: Human HepG2 cell viability assay in 384 well format
Type: toxicity, cell-based
Design: dose 125 nL, time 70.5 hour; concentration not given beside the values
Conditions: HepG2 cells, read-out: Inhibition
Report the figure in % without appending any unit label.

## Input # query: cytotoxicity at 70.5 h of entry Cn1nccc1C(=O)N1CCC(c2ncc(Cl)cc2S(C)(=O)=O)CC1
## Output 18.3

## Input # query: cytotoxicity at 70.5 h of entry Cc1cccc(OC2CCN(S(=O)(=O)Cc3cccc(F)c3)CC2)n1
## Output -1.18

## Input # query: cytotoxicity at 70.5 h of entry Cn1ccc(CN2CCCC23CCN(Cc2ccccc2F)CC3)n1
## Output -4.06

## Input # query: cytotoxicity at 70.5 h of entry CCOc1ccc(C#N)cc1NCC(=O)Nc1cc(F)ccc1F
## Output 6.71

## Input # query: cytotoxicity at 70.5 h of entry O=S(=O)(Nc1cn[nH]c1)c1ccc(Br)c(F)c1
## Output -2.34

## Input # query: cytotoxicity at 70.5 h of entry CCC1(CO)CCCN(Cc2nccn2Cc2ccccc2)C1 (stereo not given)
## Output -4.15

## Input # query: cytotoxicity at 70.5 h of entry c1ncc(Nc2nccc(C3CCCCN3CC3CCCCC3)n2)cn1 (stereo not given)
## Output -2.27

## Input # query: cytotoxicity at 70.5 h of entry CN(CCNC(=O)c1cnc(-c2ccncc2)nc1)S(C)(=O)=O
## Output -7.17

## Input # query: cytotoxicity at 70.5 h of entry O=C(c1cccc2c1OCCO2)N1CCCC1Cn1cccn1 (stereo not given)
## Output -8.07

## Input # query: cytotoxicity at 70.5 h of entry CNC(=O)CN(C)C(=O)c1cc2ccccc2cc1OC
## Output -17.8

====

Please provide measured cytotoxicity at 70.5 h for the entries that follow.
Test: Human HepG2 cell viability assay in 384 well format
Type: toxicity, cell-based
Design: dose 125 nL, time 70.5 hour; concentration not given beside the values
Settings: HepG2 cells, read-out: Inhibition
Report the figure in % without appending any unit label.

## Input # query: cytotoxicity at 70.5 h of entry Cc1ccc(CN(CCCn2ccnc2)Cc2[nH]cnc2C)s1
## Output 2.51

## Input # query: cytotoxicity at 70.5 h of entry CC(=O)N1CCC2(CC1)C(=O)N(c1ccc(C)nc1)CCN2CC(C)C
## Output -4.45

## Input # query: cytotoxicity at 70.5 h of entry Cc1nccn1C1CCCN(C(=O)CCCNc2ncccn2)C1 (configuration not stated)
## Output -6.43

## Input # query: cytotoxicity at 70.5 h of entry COc1c(C)cnc(CSc2nnc(NC3CC3)s2)c1C
## Output -1.65

## Input # query: cytotoxicity at 70.5 h of entry COCC(C)(CCO)NC(=O)Nc1cccc(Br)c1C (configuration not stated)
## Output 7.98

## Input # query: cytotoxicity at 70.5 h of entry COc1ccc(S(=O)(=O)N2CCc3ccc(F)cc32)cc1C(=O)O
## Output 1.61

## Input # query: cytotoxicity at 70.5 h of entry CO[C@H]1C[C@@H](O)C12CCN(C(=O)CCCOc1ccccc1)CC2
## Output -8.27

## Input # query: cytotoxicity at 70.5 h of entry Cc1nc(N(C)C)ncc1C(=O)N[C@@H]1CCc2ccccc21
## Output -11.5

## Input # query: cytotoxicity at 70.5 h of entry CN(CC(=O)NCc1ccco1)Cc1nc2c(s1)CCCC2
## Output 4

## Input # query: cytotoxicity at 70.5 h of entry CC1CCCN(Cc2ccc(CNC(=O)NCc3ccncc3)cc2)C1 (configuration not stated)
## Output -5.32

## Input # query: cytotoxicity at 70.5 h of entry CS(=O)(=O)N1C[C@@H]2COC[C@@H](CC(=O)N3CCCCO3)[C@@H]2C1
## Output 5.89

## Input # query: cytotoxicity at 70.5 h of entry CC(=O)N1CCN(c2ccc(Cl)nn2)C(=O)C1
## Output -7.52

## Input # query: cytotoxicity at 70.5 h of entry O=C(Cc1cnccn1)N1C[C@H]2CC[C@@H]1CN(Cc1cscn1)C2
## Output -12.8

## Input # query: cytotoxicity at 70.5 h of entry CS(=O)(=O)N1C[C@@H]2CCN(C(=O)c3ccco3)[C@@H]2C1
## Output -2.6

## Input # query: cytotoxicity at 70.5 h of entry CC(C)n1cnnc1CN(C)C(=O)c1ccccc1-n1cncn1
## Output 0.803

## Input # query: cytotoxicity at 70.5 h of entry Cc1c[nH]nc1C1CCCN1Cc1nccn1C (configuration not stated)
## Output -4.65

## Input # query: cytotoxicity at 70.5 h of entry CCOCCN1CCN(c2ccc(C#N)cn2)CC1CC (configuration not stated)
## Output 1.12

## Input # query: cytotoxicity at 70.5 h of entry COC1CCN(c2ccc(F)cc2CN(C)C(C)C(N)=O)CC1 (configuration not stated)
## Output -1.51

## Input # query: cytotoxicity at 70.5 h of entry CC(C)N(C(=O)c1csc(-c2ccoc2)n1)C1CCOCC1
## Output -10.2

## Input # query: cytotoxicity at 70.5 h of entry Cc1c(-c2c(-c3ccccc3)ncn2[C@@H](C(=O)O)[C@H](C)O)cnn1C
## Output 3.82

## Input # query: cytotoxicity at 70.5 h of entry Cc1cnn(CC(C)Nc2nc3ccccc3o2)c1 (configuration not stated)
## Output 24.3

## Input # query: cytotoxicity at 70.5 h of entry COCC(=O)N1CCC2(CC1)CC(=O)N(Cc1ccc(Cl)cc1)C2
## Output -6.31
